# melting point per record follows

Record excerpt, results attached:
# Compound, melting point
measured = [
    ("OCCSc1nc(-c2ccccc2)c(-c2ccccc2)s1", "77 to 79 °C"),
    ("CC(C)(C)n1ncc(S)c(Cl)c1=O", "112 to 113 °C"),
    ("COC(=O)[C@]1(C)Cc2c([nH]c3ccc(Cl)cc23)[C@@H](c2cccc(O)c2)N1 (racemic)", "240 to 241 °C"),
    ("Cc1ccc(S(=O)(=O)n2ccc3c(-c4c(-c5ccc(F)cc5)nc5ccc(N6CCN[C@H](C)C6)nn45)ccnc32)cc1", "253 to 256 °C"),
    ("COCC(C)Nc1nccc(Oc2ccc(NC(=O)c3cc(F)cc(N4CCCCC4)c3)c3ccccc23)n1 (stereo unspecified)", "94 to 95 °C"),
]

### Prompt Entry CNC(=S)C1(c2ccccn2)CCCCS1 (stereo unspecified) has what melting point?
### Response 153 °C

### Prompt What do you get for Nc1ccc(OC(F)(F)C(F)F)cc1[N+](=O)[O-] ?
### Response 83.9 to 84.4 °C

### Prompt Queued: COc1cc(C(=O)C2C(=O)N(C)C(=O)N(C)C2=O)ccc1Oc1nc2ccccc2s1
### Response 210 to 211 °C

### Prompt For COc1ccc(Cn2c3ccccc3c3c(N)c(C(=O)O)c(C)nc32)cc1 then?
### Response 206 to 208 °C

### Prompt Subsequent entry: NC(=O)NCCn1cc(Cn2ccnc2)c2ccccc21
### Response 153 to 154 °C

### Prompt Then what about the compound Clc1ccc2nc(CN3CCN(c4ccccc4)CC3)[nH]c2c1 ?
### Response 198 to 201 °C

----------
Value Kind: melting point

# Molecule, melting point
rows = [
    ("CCSC(=O)c1c(C(F)(F)F)nc(C(F)F)c(C(=O)OC)c1N", "72 to 74 °C"),
    ("CCO[C@@H](Cc1ccc(OCCc2nc(-c3ccc(-c4ccccc4)cc3)oc2C)c2ccsc12)C(=O)O", "163 to 164 °C"),
    ("COc1ccc(CCCCNC(=O)CCl)cc1OC", "94 to 95 °C"),
]

### Prompt Which melting point value is on record for Cc1ncc2cccc(O)c2n1 ?
### Response 135 to 137 °C

### Prompt For O=c1c([N+](=O)[O-])c[nH]c2sccc12 then?
### Response 288 to 291 °C

### Prompt Please answer likewise for Nc1cc(OCCO)ncn1
### Response 133 to 137 °C

### Prompt Do the same for C#Cc1ccnc(-c2cc(N)c(C#Cc3ccc(C(C)=S)cc3)cc2[N+](=O)[O-])c1 please
### Response 185 to 188 °C

### Prompt Same question, CC(C)(C)C(NC(=O)c1ccc(Cl)cc1)NC(=NS(=O)(=O)c1ccccc1)Nc1cccnc1 (configuration not stated) this time
### Response 196 to 197 °C

### Prompt Try this molecule too: CCNC(=O)c1ccccc1C(F)(F)F
### Response 73 to 76 °C

### Prompt Entry to check: Cc1c(Nc2c(C#N)cnc3sccc23)ccc2[nH]ccc12
### Response 255 °C

### Prompt // same read-out, input: CN(C)CCCCCCCCCOc1ccc2oc(-c3ccccc3)cc(=O)c2c1
### Response 52 to 53 °C

### Prompt Try the molecule CC(C)(C)OC(=O)N1CCC[C@H]1Cn1ccc2c3ccn(Cc4ccc(F)cc4)c(=O)c3ccc21
### Response 144 to 145 °C

### Prompt Moving on to NCC1Cc2cc(-c3ccccc3)cc(-c3ccc(F)cc3F)c2O1 (configuration not stated)
### Response 159 to 162 °C

### Prompt Follow-up item: CC#Cc1cc(=O)n2nc(SCCCCCC)sc2n1
### Response 94 to 97 °C

### Prompt Record: CC(=O)OC1CSC(Oc2cc(-c3ccncc3)cnc2F)C(OC(C)=O)C1OC(C)=O (configuration not stated)
### Response 143 to 144 °C

### Prompt Proceed to CCCc1c(OCc2ccc(CBr)cc2)ccc(C(C)=O)c1O
### Response 98 to 99 °C

----------
Reported melting point is given for each of the following molecules.

### Prompt For the molecule Cc1sc(-c2ccccc2)nc1COc1ccc(COc2ccccc2CC(=O)O)cn1 , what melting point is on record?
### Response 173 to 174 °C

### Prompt Next molecule: COc1ccc(COC(=O)c2ccc(C(O)C(=O)O)cc2)cc1 (stereo not drawn)
### Response 111 to 113 °C

### Prompt Input CCN(C)c1nsc(N)c1C#N
### Response 94 to 95 °C

----------
Measured melting point by item

# Compound, melting point
measured = [
    ("COC(=O)CCc1ccc(OCc2cccc(-c3cccc(C(=O)O)c3)c2)cc1", "180 to 185 °C"),
    ("CCNc1nc(C)cc(O)n1", "176 °C"),
    ("COc1cc(N(C)C)c(Cl)cc1C(=O)NC1CCN(Cc2ccc(Cl)cc2)C1 (stereo not given)", "172 to 173 °C"),
]

Would you kindly look at the next entry?
### Prompt What measured melting point goes with O=C(NCCO)c1cccc(-c2ccc3ccn(-c4ccc(Cl)cc4Cl)c3c2)c1 ?
### Response 163 to 164 °C

----------
Value Kind: melting point

Example entries and their recorded answers appear below.
# Compound, melting point
rows = [
    ("c1ccc(C(c2ccccc2)N2CCCC2)cc1", "69 to 72 °C"),
    ("Oc1cccc2ccc3cccnc3c12", "104 °C"),
    ("Cc1ccccc1NC(=O)Nn1c(=O)c(=O)[nH]c2ccccc21", "> 300 °C"),
    ("NC[C@H]1CN(c2ccc(N3CCOCC3=O)cc2)C(=O)O1", "145 to 147 °C"),
    ("C=CCCCOc1ccc2c(=O)cc(-c3ccccc3)oc2c1", "104 to 106 °C"),
    ("Cc1[nH]c(C=O)c(C)c1CCCO", "85 °C"),
    ("CC(C)n1nc(CC(=O)c2cccc(Cl)c2)ccc1=O", "85 to 86 °C"),
    ("COC(=O)NN[C@@H]1c2cc(C#N)ccc2OC(C)(C)[C@H]1O (relative stereo)", "174 to 175 °C"),
]

### Prompt // lookup melting point for COc1ccc(N)c(-c2ccc3cc(OC)c(OC)cc3c2)c1
### Response 158 to 160 °C

### Prompt Do the same for COc1ccc(S(=O)(=O)Oc2ccc3[nH]cc(C4CCN(C)CC4)c3c2)cc1 please
### Response 186 to 187 °C

### Prompt Item: Cc1cc(C)c(C(=O)C(F)(F)F)[nH]1
### Response 80 °C

### Prompt Now this one: O=C(Nc1ccc(Br)cn1)Nc1cccc2c1C1CCCCN1C2=O (stereo not given)
### Response 225 °C

### Prompt Now the compound Cc1cc(C(=O)NCc2cccc3c2C(=O)N(C2CCC(=O)NC2=O)C3=O)no1 (stereo not given)
### Response 207 to 209 °C

### Prompt Next up: CN1CCC(c2c[nH]c3ccc(NC(=O)c4sccc4Br)nc23)CC1
### Response 245 to 247 °C

### Prompt Follow-up entry: COc1cc(C(=O)N2CCC(CCN3CCC(C(=O)c4nc5ccccc5n4Cc4ccc(F)cc4)CC3)(c3ccccc3)C2)cc(OC)c1OC (stereo not given)
### Response 107 to 109 °C

----------
Collected melting point values appear next to each entry.

Examples with their reported melting point follow.
# Molecule, Result Value
records = [
    ("COc1ccc2c(=O)n3c(cc2c1)SCCC3", "86 to 87 °C"),
    ("COc1ccc(N2CCN(c3c(C)c(C)c4c(c3C)C(Cc3ccccc3)C(C)(C)O4)CC2)cc1 (stereo unspecified)", "146 to 148 °C"),
    ("COCCOc1ccccc1-c1cc(Nc2cccc(S(C)(=O)=O)c2)ncn1", "153 to 154 °C"),
    ("Cc1cc2[nH]ncc2cc1NC1=NCCS1", "218 to 221 °C"),
    ("O=[N+]([O-])c1ccc(OCCCl)cc1", "60 °C"),
    ("Cc1nc(-n2cnn(CCNc3ccc(F)cc3)c2=O)sc1C(=O)NCc1cccnc1", "163 to 164 °C"),
    ("CCCCc1c(C=O)ccc2c(OC)cccc12", "61.5 to 62.5 °C"),
    ("CC(C)(C)c1ccc(S(=O)(=O)/C=C/c2ccccc2)cc1", "95 °C"),
]

### Prompt So what does the record say about melting point for COc1cc(C)c2c(c1C)C(SC)C(=O)N2 (stereo unspecified) ?
### Response 226 to 227 °C

### Prompt Same read-out for CCCCCCNc1ccc(Oc2ccc3nc(COc4ccc(CC5SC(=O)NC5=O)cc4)n(C)c3c2)cc1 (stereo unspecified) ?
### Response 177 to 179 °C

### Prompt Continue with CNC1(C2CCCCC2)C(=O)Nc2ccc(Cl)cc21 (stereo unspecified)
### Response 195 to 198 °C

### Prompt Thanks! And O=c1[nH]c2cc(-c3ccncc3)c(C(F)(F)F)nc2[nH]1 ?
### Response > 300 °C

### Prompt // repeat for CC(C)n1nc(-c2nc(-c3ccccc3)c(N)nc2-c2ccccc2)ccc1=O and report
### Response 225 to 226 °C

The origin of these recorded values is a melting point compilation (Tetko et al.; mined from patent text by program, amines drawn as free bases though some values may be those of a salt).
